assayTarget: Dipeptidyl peptidase 4 (Homo sapiens, UniProt P27487)
Sequence (P27487 whole entry): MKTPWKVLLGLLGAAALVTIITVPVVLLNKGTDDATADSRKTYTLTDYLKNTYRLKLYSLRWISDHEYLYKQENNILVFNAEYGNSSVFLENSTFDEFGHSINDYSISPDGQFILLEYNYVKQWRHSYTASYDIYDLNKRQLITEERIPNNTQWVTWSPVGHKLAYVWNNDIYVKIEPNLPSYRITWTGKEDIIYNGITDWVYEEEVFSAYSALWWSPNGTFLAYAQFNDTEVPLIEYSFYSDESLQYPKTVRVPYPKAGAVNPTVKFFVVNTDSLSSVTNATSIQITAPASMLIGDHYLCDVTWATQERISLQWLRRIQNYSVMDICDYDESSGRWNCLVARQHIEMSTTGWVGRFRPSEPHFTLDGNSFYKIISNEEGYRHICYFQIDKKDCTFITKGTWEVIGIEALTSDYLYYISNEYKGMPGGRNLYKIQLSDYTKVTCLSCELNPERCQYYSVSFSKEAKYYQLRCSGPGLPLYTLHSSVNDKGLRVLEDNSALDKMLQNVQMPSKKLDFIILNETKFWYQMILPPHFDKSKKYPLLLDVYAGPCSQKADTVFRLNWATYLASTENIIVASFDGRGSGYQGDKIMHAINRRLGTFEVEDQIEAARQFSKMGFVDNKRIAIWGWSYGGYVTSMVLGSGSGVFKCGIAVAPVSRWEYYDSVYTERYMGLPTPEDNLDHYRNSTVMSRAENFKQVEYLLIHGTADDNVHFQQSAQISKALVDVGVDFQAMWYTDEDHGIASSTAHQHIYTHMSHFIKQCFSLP
Returns: string. Value is 1 if measured Ki is below 5 µM, and 0 if it is greater than or equal to it.

Field: example entries. Status: answers known.
structureSmilesString | assignedCategory
NCCC[C@H](NC(=O)OCc1ccccc1)C(=O)N1CCCC1 | 1
O=C([C@@H]1CCCN1)N1CCC[C@H]1B(O)O | 1
O=C([C@H](CO)NCc1ccccc1)N1CCCC1 | 0

Prompt: Answer whether the compound `N[C@H](C(=O)N1CCCC1)c1ccccc1` has Ki strictly less than 5 µM
Response: 0

Prompt: Answer whether the compound `C[C@H](N)C(=O)N1CCCC1` has Ki strictly less than 5 µM
Response: 0
